Where do these numbers come from? They come from patent US20240043505A1.

Reported values of pIC50 for individual entries
- Tested On: SARS-CoV-2 spike receptor-binding domain (RBD) (SARS-CoV-2, UniProt P0DTC2 319-541)
- Experimental Details: indirect ELISA on coated RBD ('ELISA affinity')
// pIC50 is dimensionless: -log10 of concentration (M)

The following binders have reported results that may help.
pIC50 in this record for Nb16 (VHH) VHH: DVQLVESGGGLVQAGESLRLSCAASGDMFSSNAMAWYRQAPGKQRELVASITSGGNTNYADSVKGRFTISRDNAKNTVYLQMDSLKPEDTAVYYCNGVAYDYSWGRPRNFWGQGTQVTVSS : 9.43

Lab note: Nb76 (VHH) VHH: DVQLVESGGGLVQAGGSLRLSCAVSGRTFSISTMGWFRQAPGKERLFVAGITWHDGSTNYADSVKGRFTISRDNAKNTVYLQMNSLKPEDTALYYCAARKSINYVQEYDYWGRGTQVTVSS gave pIC50 of 9.77

Others:
Input Nb94 (VHH) VHH: QVQLVESGGGLVQAGGSLRLSCTASGGTFRSFTMAWFRQAPGKEREFVATLSWTGVGTYYADSVKGRFTISRDIAKNTVYLEMNSLIPEDTAVYYCAASPYTYSLLSRTGDYGYWGQGTQVTVSS . Output pIC50: 9.30

The reported pIC50 of the binder Nb46 (VHH) VHH: QVQLVESGGGLVQAGGSLRLSCAVSGSTLGINAIGWYRQPPGKQRELVASISSLGTTLYAESVKGRFAISRDNAKNTGYLQMNSLKPDDTAVYYCNMRTPYMRDYWGQGTQVTVSS was 7.59

Nb84 (VHH) VHH: DVQLVESGGGLVQAGGSLRLSCAASGRTFSSYSMGWFRQAPGKEREFVAFIRWSGTSTYYADSVKGRFTISRDNAKNTVYLQMNSLKPDDTAVYYCAASSRTMNTISQTMRINWDYWGQGTQVTVSS has a reported pIC50 of 9.28

pIC50 reported for this binder Nb10 (VHH) VHH: DVQLVESGGGLVQAGGSLKLSCTASESTFNFNHIDWYRQAPGKQRESVAVITNTDVTNYADSVKGRFTISRDNAKNTVYLQMNSLKPEDTAVYLCNAWRFGPTGVKVDYWGQGTQVTVSS : 9.62

Recorded pIC50 (binder Nb43 (VHH) VHH: EVQLVESGGGLVQAGGSLRLTCAASGRTFSSSTMDMGWFRQAPGKEREFVAVDAWNDGRTYYADSVKGRFTISRDNAKNTLYLQMNSLKPEDTAIYYCNLRQGCSYNGCDEYWGQGTQVTVSS ): 6.18

Entry Nb92 (VHH) VHH: HVQLVESGGGLVQAGGSLRLSCAASGRTFSAYGMGWFRQAPGKEREFVAGIARSGSEYYGDSVKGRFTISRDNAKNTVYLQMASLKAEDTGVYYCAADPTILYHALSQRTQNYRYWGPGTQVTVSS ; pIC50 = 8.31
